- SYSTEM_NAME: TRPC5 (Homo sapiens, UniProt Q9UL62)
- Construct: expressed in transfected cells; host or cells: HEK 293
- Sequence (Q9UL62 whole entry): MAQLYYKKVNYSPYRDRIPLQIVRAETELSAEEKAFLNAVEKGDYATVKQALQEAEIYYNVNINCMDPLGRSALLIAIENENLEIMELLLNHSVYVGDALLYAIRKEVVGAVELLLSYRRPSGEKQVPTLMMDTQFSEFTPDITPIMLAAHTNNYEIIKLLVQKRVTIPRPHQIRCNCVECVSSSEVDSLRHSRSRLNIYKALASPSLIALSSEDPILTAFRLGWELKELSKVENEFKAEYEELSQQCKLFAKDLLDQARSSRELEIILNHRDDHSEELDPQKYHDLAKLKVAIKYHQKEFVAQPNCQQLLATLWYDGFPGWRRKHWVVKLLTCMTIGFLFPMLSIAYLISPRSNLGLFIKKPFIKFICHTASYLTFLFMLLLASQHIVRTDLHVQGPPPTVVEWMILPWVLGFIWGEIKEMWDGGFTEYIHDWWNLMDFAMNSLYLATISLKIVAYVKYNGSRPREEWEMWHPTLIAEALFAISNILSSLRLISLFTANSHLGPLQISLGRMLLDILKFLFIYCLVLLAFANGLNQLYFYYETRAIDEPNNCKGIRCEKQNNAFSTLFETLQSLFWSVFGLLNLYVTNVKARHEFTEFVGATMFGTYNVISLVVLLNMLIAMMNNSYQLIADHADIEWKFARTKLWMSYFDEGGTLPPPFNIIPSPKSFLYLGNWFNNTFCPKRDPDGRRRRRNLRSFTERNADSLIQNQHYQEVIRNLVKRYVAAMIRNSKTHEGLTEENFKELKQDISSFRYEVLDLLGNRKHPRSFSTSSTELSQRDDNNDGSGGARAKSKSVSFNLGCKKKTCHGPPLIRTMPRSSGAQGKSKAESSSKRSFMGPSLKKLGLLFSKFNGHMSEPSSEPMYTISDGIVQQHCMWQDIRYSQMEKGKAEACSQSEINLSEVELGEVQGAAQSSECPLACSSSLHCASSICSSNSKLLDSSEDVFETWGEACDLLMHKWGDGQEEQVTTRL
- ASSAY_SUMMARY: TRPC5 automated patch clamp assay (Qpatch), current block after rosiglitazone stimulation
- Type: cell-based
- CONDITIONS: Table 6; HEK293 cells overexpressing TRPC5; read-out: TRPC5-QPatch IC50
QUANTITY_NAME: IC50

Record excerpt, results attached:
COMPOUND	IC50
Cc1ccccc1-n1cnc2c1CCN(c1cn[nH]c(=O)c1Cl)C2	1 to 5 µM
O=c1[nH]ncc(N2CCc3c(ncn3Cc3ccccc3C(F)(F)F)C2)c1Br [drawing 838]	1 to 5 µM
O=c1[nH]ncc(N2CCc3ncn(-c4ccccc4C(F)(F)F)c3C2)c1Cl [drawing 847]	5 to 10 µM
CCc1ncccc1Cn1cnc2c1CCN(c1cn[nH]c(=O)c1Cl)C2	1e-05 to 1 µM

For the next question, use this compound.
Returns the measured IC50 for the input compound. Input: CC[C@@H](c1cncc(F)c1)n1cnc2c1CCN(c1cn[nH]c(=O)c1Cl)C2
5 to 10 µM

###

- SYSTEM_NAME: TRPC5 (Homo sapiens)
- Construct: expressed in transfected cells; host or cells: HEK 293
- ASSAY_SUMMARY: TRPC5 fluorescence assay, membrane potential dye, flexstation (FLEX)
- Assay type: cell-based
- CONDITIONS: Table 6; HEK293 cells overexpressing TRPC5
pIC50: −log10 of the molar value.
QUANTITY_NAME: pIC50

Record excerpt, results attached:
COMPOUND	pIC50
O=c1[nH]ncc(N2CCc3c(cnn3-c3ccccc3C(F)(F)F)C2)c1Cl	5.30 to 6.00
O=c1[nH]ncc(N2CCc3c(ncn3Cc3ccccc3C(F)(F)F)C2)c1Br [drawing 838]	6.00 to 11.00

Report pIC50 for O=c1[nH]ncc(N2CCc3c(ncn3Cc3cnccc3C(F)(F)F)C2)c1Cl tested on TRPC5 (Homo sapiens).
6.00 to 11.00

Report pIC50 for O=c1[nH]ncc(N2CCc3c(ncn3Cc3cccnc3OC(F)(F)F)C2)c1Cl tested on TRPC5 (Homo sapiens).
6.00 to 11.00

###

- SYSTEM_NAME: TRPC5 (Homo sapiens)
- Construct: expressed in transfected cells; host or cells: HEK 293
- ASSAY_SUMMARY: TRPC5 automated patch clamp assay (Qpatch), current block after rosiglitazone stimulation
- Format: cell-based
- CONDITIONS: Table 4; HEK293 cells overexpressing TRPC5; rosiglitazone stimulation; 100 mV; read-out: TRPC5_QP_ XC50_100
pIC50: −log10 of the molar value.
QUANTITY_NAME: pIC50

Record excerpt, results attached:
MOLECULE	RESULT
Cc1ccccc1C(C)N1CCN(c2cn[nH]c(=O)c2Cl)CC1=O (stereo not shown)	6.00 to 11.00
O=C1CN(c2cn[nH]c(=O)c2Cl)CCN1Cc1cccc(-c2ccccc2)c1	3.30 to 5.00
CCN(CC)C(=O)CN1CCN(c2cn[nH]c(=O)c2Cl)[C@H](C)C1	3.30 to 5.00

Returns the measured pIC50 for the input molecule. Input: O=c1[nH]ncc(Cl)c1N1CCN(Cc2ccccc2OC(F)(F)F)CC1
5.00 to 5.30

Returns the measured pIC50 for the input molecule. Input: Cc1ccccc1CN1CCN(c2c(Cl)cn[nH]c2=O)CC1
5.00 to 5.30

Returns the measured pIC50 for the input molecule. Input: C[C@H](c1ccccc1)N1CCN(c2cn[nH]c(=O)c2Cl)CC1
5.30 to 6.00

Returns the measured pIC50 for the input molecule. Input: CCc1c(N2CCN(Cc3ccccc3C)C(=O)C2)cn[nH]c1=O
5.00 to 5.30

###

- SYSTEM_NAME: TRPC5 (Homo sapiens, UniProt Q9UL62)
- Construct: expressed in transfected cells; host or cells: HEK 293
- ASSAY_SUMMARY: TRPC5 automated patch clamp assay (Qpatch), current block after rosiglitazone stimulation
- Assay type: cell-based
- CONDITIONS: Table 3; HEK293 cells overexpressing TRPC5; rosiglitazone stimulation; 80 mV; read-out: TRPC5_QP_ XC50_80
pIC50: −log10 of the molar value.
Consider the following molecules and their measured pIC50 readings.

MOLECULE	pIC50
O=C1CN(c2cn[nH]c(=O)c2Cl)CCN1Cc1ccccc1C(F)(F)F	6.00 to 11.00
O=c1[nH]ncc(N2CCN(Cc3ccccc3OC(F)(F)F)CC2)c1Br	5.30 to 6.00
Cc1ccccc1CN1CC2CCC(C1)N2c1cn[nH]c(=O)c1Br	3.30 to 5.00
Cc1ccccc1CN1CC2CC1CN2c1cn[nH]c(=O)c1Br (centres unmarked)	3.30 to 5.00
Cc1ccccc1CN1CCN(c2cn[nH]c(=O)c2C(F)(F)F)CC1=O	5.30 to 6.00
O=c1[nH]ncc(N2CCN(CC(F)(F)F)CC2)c1Br	3.30 to 5.00

Returns the measured pIC50 for the input molecule. Input: O=c1[nH]ncc(N2CCCNCC2)c1Br
3.30 to 5.00

Returns the measured pIC50 for the input molecule. Input: O=c1[nH]ncc(N2CC3(CN(Cc4ccccc4)C3)C2)c1Br
3.30 to 5.00

###

- SYSTEM_NAME: TRPC5 (Homo sapiens, UniProt Q9UL62)
- Construct: expressed in transfected cells; host or cells: HEK 293
- ASSAY_SUMMARY: TRPC5 automated patch clamp assay (Qpatch), current block after rosiglitazone stimulation
- Assay type: cell-based
- CONDITIONS: Table 3; HEK293 cells overexpressing TRPC5; rosiglitazone stimulation; 100 mV; read-out: TRPC5_QP_ XC50_100
Consider the following compounds and their measured IC50 readings.

Returns the measured IC50 for the input compound. Input: Cc1ccccc1CN1CC2CCC(C1)N2c1cn[nH]c(=O)c1Br
10 to 500 µM

Returns the measured IC50 for the input compound. Input: O=C1CN(c2cn[nH]c(=O)c2Br)CCN1Cc1ccc(F)cc1F
1 to 5 µM

Returns the measured IC50 for the input compound. Input: Cc1cc(F)ccc1CN1CCN(c2cn[nH]c(=O)c2Br)CC1
1 to 5 µM

###

- SYSTEM_NAME: TRPC5 (Homo sapiens, UniProt Q9UL62)
- Construct: expressed in transfected cells; host or cells: HEK 293
- ASSAY_SUMMARY: TRPC5 automated patch clamp assay (Qpatch), current block after rosiglitazone stimulation
- Assay type: cell-based
- CONDITIONS: Table 3; HEK293 cells overexpressing TRPC5; rosiglitazone stimulation; 80 mV; read-out: TRPC5_QP_ XC50_80
QUANTITY_NAME: IC50

Record excerpt, results attached:
COMPOUND	SYSTEM_NAME	RESULT
Cc1ccccc1CN1CCN(c2cn[nH]c(=O)c2C2=CCOCC2)CC1=O	TRPC5 (Homo sapiens, UniProt Q9UL62)	10 to 500 µM
O=C1CN(c2cn[nH]c(=O)c2Br)CCN1Cc1ccc(F)cc1F	TRPC5 (Homo sapiens, UniProt Q9UL62)	1 to 5 µM

For the next question, use this compound.
Returns the measured IC50 for the input compound. Input: O=C1CN(c2cn[nH]c(=O)c2Cl)CCN1Cc1ccccc1OC(F)(F)F [drawing 689]
1e-05 to 1 µM

###

- SYSTEM_NAME: TRPC5 (Homo sapiens, UniProt Q9UL62)
- Construct: expressed in transfected cells; host or cells: HEK 293
- ASSAY_SUMMARY: TRPC5 automated patch clamp assay (Qpatch), current block after rosiglitazone stimulation
- Format: cell-based
- CONDITIONS: Table 3; HEK293 cells overexpressing TRPC5; rosiglitazone stimulation; 100 mV; read-out: TRPC5_QP_ XC50_100
pIC50: −log10 of the molar value.
Consider the following compounds and their measured pIC50 readings.

COMPOUND	pIC50
Cc1ccccc1CN1CCC2(C1)CN(c1cn[nH]c(=O)c1Br)C2	3.30 to 5.00
Cc1ccccc1CN1CC2(CCN(c3cn[nH]c(=O)c3Br)C2)C1	3.30 to 5.00
Cc1ccccc1CN1CCN(c2cn[nH]c(=O)c2C#CC(C)C)CC1=O	3.30 to 5.00
O=C1CN(c2cn[nH]c(=O)c2Br)CCN1Cc1cccc2ccccc12 [drawing 665]	6.00 to 11.00
Cc1ccccc1CN1CCN(c2cn[nH]c(=O)c2CCC(C)C)CC1=O [drawing 695]	3.30 to 5.00

Returns the measured pIC50 for the input compound. Input: O=c1[nH]ncc(N2CCN(Cc3ccccc3C(F)(F)F)CC2)c1Cl [drawing 694]
5.30 to 6.00

Returns the measured pIC50 for the input compound. Input: Cc1ccccc1CN1CCN(c2cn[nH]c(=O)c2Br)C(C)C1 (stereo not shown) [drawing 647]
5.30 to 6.00
